# Test system: HL-1
# experiment notes: relative cell viability (CellTiter-Glo) vs DMSO control (% of DMSO control); higher = more viable cells
# condition description: oxygen condition: normoxia 72 h; 200 nM
Counter-ions that a name gives are not always drawn.
property measured: relative cell viability
Form: value (number only, do not type unit).

Examples from the recorded data:
molecule | property measured | assay result
CCOc1nc2cccc(C(=O)O)c2n1Cc1ccc(-c2ccccc2-c2nnn[nH]2)cc1 [Candesartan] | relative cell viability | 109
CC(C)[C@H](N)C(=O)OCC(CO)OCn1cnc2c(=O)nc(N)[nH]c21 (some centres not stated) [valganciclovir hydrochloride] | relative cell viability | 110
NCCCC(O)(P(=O)(O)O)P(=O)(O)O [Alendronate] | relative cell viability | 105
CCOc1ccc2nc(S(N)(=O)=O)sc2c1 [Ethoxzolamide] | relative cell viability | 98.8
CC(C)(CO)[C@@H](O)C(=O)NCCC(=O)O [Pantothenic acid] | relative cell viability | 101
CCc1c2c(nc3ccc(OC(=O)N4CCC(N5CCCCC5)CC4)cc13)-c1cc3c(c(=O)n1C2)COC(=O)[C@]3(O)CC [Irinotecan] | relative cell viability | 83.4
COc1ccc2cc1Oc1ccc(cc1)C[C@H]1c3c(cc4c(c3Oc3cc5c(cc3OC)CCN(C)[C@@H]5C2)OCO4)CCN1C [Cepharanthine] | relative cell viability | 86.8
CC1COc2c(N3CCN(C)CC3)c(F)cc3c(=O)c(C(=O)O)cn1c23 (configuration not stated) [Ofloxacin] | relative cell viability | 97.3
O=c1oc2cc(O)ccc2s1 [Tioxolone] | relative cell viability | 109
COc1ccccc1N1CCN(CC(O)COc2cccc3ccccc23)CC1 (configuration not stated) [Naftopidil] | relative cell viability | 100

Asked: Indicate its recorded relative cell viability; the molecule in question is Clc1ccc(C(Cn2ccnc2)OCc2ccc(Sc3ccccc3)cc2)c(Cl)c1 (configuration not stated) [Fenticonazole nitrate]
Given back: 98

Asked: Indicate its recorded relative cell viability; the molecule in question is CC(=O)[C@H]1CC[C@H]2[C@@H]3CCC4=CC(=O)CC[C@]4(C)[C@H]3CC[C@]12C [Progesterone]
Given back: 111

Asked: Indicate its recorded relative cell viability; the molecule in question is CC(C)(Oc1ccc(CCNC(=O)c2ccc(Cl)cc2)cc1)C(=O)O [Bezafibrate]
Given back: 101

Provenance of the data: the supplement of paper PMC8371130
